assay: Pharmacokinetic studies in mice; assay type: in vivo; conditions: male, mouse, serum, iv; CD-1 mice, i.v. (5 mg/kg); read-out: AUCINF_obs
Readout Type: AUC(0-inf)

Molecule	Readout Type	Result
O=C[C@H](C[C@@H]1CCNC1=O)NC(=O)[C@H](CC1CCCCC1)NC(=O)c1ccc2ccccc2n1 [compound 4]	AUC(0-inf)	5190 ng·h/mL
CC(C)C(NC(=O)c1ccc2ccccc2n1)C(=O)N[C@@H](CC1CCCCC1)C(=O)N[C@H](C=O)C[C@@H]1CCNC1=O (some centres unmarked) [10d]	AUC(0-inf)	1810 ng·h/mL

###

In this section we review reported Tmax values for a set of molecules.
assay: Pharmacokinetic studies in mice; format: in vivo; conditions: male, mouse, serum, sc; CD-1 mice, s.c. (5 mg/kg)
Readout Type: Tmax (min)

Molecule	Unit	Readout Number
CC(C)C(NC(=O)c1ccc2ccccc2n1)C(=O)N[C@@H](CC1CCCCC1)C(=O)N[C@H](C=O)C[C@@H]1CCNC1=O (some centres unmarked) [10d]	min	25.2
O=C[C@H](C[C@@H]1CCNC1=O)NC(=O)[C@H](CC1CCCCC1)NC(=O)c1ccc2ccccc2n1	min	34.8

###

test: Pharmacokinetic studies in mice; type: in vivo; conditions: male, mouse, serum, ip; CD-1 mice, i.p. (20 mg/kg)

Compound	AUC(0-t)
CC(C)C(NC(=O)c1ccc2ccccc2n1)C(=O)N[C@@H](CC1CCCCC1)C(=O)N[C@H](C=O)C[C@@H]1CCNC1=O (some centres unmarked) [10d]	10800 ng·h/mL
O=C[C@H](C[C@@H]1CCNC1=O)NC(=O)[C@H](CC1CCCCC1)NC(=O)c1ccc2ccccc2n1	14900 ng·h/mL

###

test: Pharmacokinetic studies in mice; assay type: in vivo; conditions: male, mouse, serum, sc; CD-1 mice, s.c. (5 mg/kg)
In this section we review reported AUC(0-t) values for a set of compounds.

Compound	AUC(0-t), ng·h/mL
O=C[C@H](C[C@@H]1CCNC1=O)NC(=O)[C@H](CC1CCCCC1)NC(=O)c1ccc2ccccc2n1	4060
CC(C)C(NC(=O)c1ccc2ccccc2n1)C(=O)N[C@@H](CC1CCCCC1)C(=O)N[C@H](C=O)C[C@@H]1CCNC1=O (some centres unmarked) [10d]	1840

###

tested on: Murine norovirus (MNV, strain MNV 1.CW1); test: MNV-induced CPE reduction assay (MTS) in RAW 264.7 cells; format: cell-based; conditions: Norwalk virus, RAW264.7, RAW 264.7 cells, MTS; read-out: EC50, MNV-induced CPE
pEC50: −log10 of the molar value.

Structure Notation	Target Under Test	pEC50
O=C[C@H](C[C@@H]1CCNC1=O)NC(=O)[C@H](CC1CCCCC1)NC(=O)c1ccc2ccccc2n1	Murine norovirus (MNV, strain MNV 1.CW1)	~6.00

###

assay: Pharmacokinetic studies in mice; type: in vivo; settings: male, mouse, serum, sc; CD-1 mice, s.c. (5 mg/kg); read-out: AUCINF_obs

Compound	Unit	AUC(0-inf)
CC(C)C(NC(=O)c1ccc2ccccc2n1)C(=O)N[C@@H](CC1CCCCC1)C(=O)N[C@H](C=O)C[C@@H]1CCNC1=O (some centres unmarked) [10d]	ng·h/mL	1860
O=C[C@H](C[C@@H]1CCNC1=O)NC(=O)[C@H](CC1CCCCC1)NC(=O)c1ccc2ccccc2n1	ng·h/mL	4110

###

assay: Pharmacokinetic studies in mice; format: in vivo; conditions: male, mouse, serum, iv; CD-1 mice, i.v. (5 mg/kg)
In this section we review reported half-life values for a set of molecules.
Readout Type: half-life

Molecule	Readout Type	Result
CC(C)C(NC(=O)c1ccc2ccccc2n1)C(=O)N[C@@H](CC1CCCCC1)C(=O)N[C@H](C=O)C[C@@H]1CCNC1=O (some centres unmarked) [10d]	half-life	5.64 h
O=C[C@H](C[C@@H]1CCNC1=O)NC(=O)[C@H](CC1CCCCC1)NC(=O)c1ccc2ccccc2n1	half-life	5.5 h

###

assay: Pharmacokinetic studies in mice; type: in vivo; conditions: male, mouse, serum, ip; CD-1 mice, i.p. (20 mg/kg); read-out: AUCINF_obs
Readout Type: AUC(0-inf) (µg·h/mL)

Compound	Readout Number
CC(C)C(NC(=O)c1ccc2ccccc2n1)C(=O)N[C@@H](CC1CCCCC1)C(=O)N[C@H](C=O)C[C@@H]1CCNC1=O (some centres unmarked) [10d]	10.8
O=C[C@H](C[C@@H]1CCNC1=O)NC(=O)[C@H](CC1CCCCC1)NC(=O)c1ccc2ccccc2n1 [compound 4]	15

###

experiment: Pharmacokinetic studies in mice; assay type: in vivo; conditions: male, mouse, serum, ip; CD-1 mice, i.p. (20 mg/kg); read-out: MRTINF_obs
Readout Type: MRT inf (h)

Molecule	Readout Number
O=C[C@H](C[C@@H]1CCNC1=O)NC(=O)[C@H](CC1CCCCC1)NC(=O)c1ccc2ccccc2n1 [compound 4]	1.4
CC(C)C(NC(=O)c1ccc2ccccc2n1)C(=O)N[C@@H](CC1CCCCC1)C(=O)N[C@H](C=O)C[C@@H]1CCNC1=O (some centres unmarked) [10d]	1.34

###

experiment: Pharmacokinetic studies in mice; type: in vivo; settings: male, mouse, serum, ip; CD-1 mice, i.p. (20 mg/kg)
In this section we review reported half-life values for a set of molecules.

Molecule	half-life, h
O=C[C@H](C[C@@H]1CCNC1=O)NC(=O)[C@H](CC1CCCCC1)NC(=O)c1ccc2ccccc2n1	5.11
CC(C)C(NC(=O)c1ccc2ccccc2n1)C(=O)N[C@@H](CC1CCCCC1)C(=O)N[C@H](C=O)C[C@@H]1CCNC1=O (some centres unmarked) [10d]	4.26

###

test system: HuNoV GI.1 replicon variants; test: Generation of drug-resistant HuNoV GI.1 replicon variants; type: cell-based, Human norovirus; details: Norovirus, selection pressure: 10 µM of compound 4
pEC50: −log10 of the molar value.
Readout Type: pEC50

Molecule	Readout Number
O=C[C@H](C[C@@H]1CCNC1=O)NC(=O)[C@H](CC1CCCCC1)NC(=O)c1ccc2ccccc2n1 [compound 4]	5.37

###

test: Pharmacokinetic studies in mice; assay type: in vivo; conditions: male, mouse, serum, sc; CD-1 mice, s.c. (5 mg/kg)
In this section we review reported Cmax values for a set of compounds.
Readout Type: Cmax (ng/mL)

Compound	Readout Type	Readout Number
O=C[C@H](C[C@@H]1CCNC1=O)NC(=O)[C@H](CC1CCCCC1)NC(=O)c1ccc2ccccc2n1	Cmax	2200
CC(C)C(NC(=O)c1ccc2ccccc2n1)C(=O)N[C@@H](CC1CCCCC1)C(=O)N[C@H](C=O)C[C@@H]1CCNC1=O (some centres unmarked) [10d]	Cmax	1570

###

experiment: Pharmacokinetic studies in mice; format: in vivo; settings: male, mouse, serum, iv; CD-1 mice, i.v. (5 mg/kg); read-out: CL_obs
In this section we review reported clearance values for a set of compounds.

Compound	clearance
O=C[C@H](C[C@@H]1CCNC1=O)NC(=O)[C@H](CC1CCCCC1)NC(=O)c1ccc2ccccc2n1 [compound 4]	16.8 mL/min/kg
CC(C)C(NC(=O)c1ccc2ccccc2n1)C(=O)N[C@@H](CC1CCCCC1)C(=O)N[C@H](C=O)C[C@@H]1CCNC1=O (some centres unmarked) [10d]	46 mL/min/kg

###

target: GV protease (Norovirus)
In this section we review reported IC50 values for a set of compounds.
Readout Type: IC50 (µM)

Compound	Readout Type	Unit	Readout Number
O=C[C@H](C[C@@H]1CCNC1=O)NC(=O)[C@H](CC1CCCCC1)NC(=O)c1ccc2ccccc2n1 [compound 4]	IC50	µM	32.5
CCOC(=O)/C=C/[C@H](C[C@@H]1CCNC1=O)NC(=O)[C@@H](CC(=O)[C@@H](NC(=O)c1cc(C)on1)C(C)C)Cc1ccc(F)cc1 [rupintrivir, Rupintrivir, reference compound]	IC50	µM	4.6
CC(C)C(NC(=O)c1ccc2ccccc2n1)C(=O)N[C@@H](CC1CCCCC1)C(=O)N[C@H](C=O)C[C@@H]1CCNC1=O (stereo partly drawn) [10d]	IC50	µM	0.49

###

In this section we review reported pIC50 values for a set of molecules.
biological target: GI.1 protease (Norovirus, UniProt Q83883); assay: Cell-based FRET protease assay, GI.1 protease; design: species or system Human norovirus
pIC50: −log10 of the molar value.

Molecule	pIC50
O=C[C@H](C[C@@H]1CCNC1=O)NC(=O)[C@H](CC1CCCCC1)NC(=O)c1ccc2ccccc2n1	4.47
CC(C)C(NC(=O)c1ccc2ccccc2n1)C(=O)N[C@@H](CC1CCCCC1)C(=O)N[C@H](C=O)C[C@@H]1CCNC1=O (some centres unmarked) [10d]	7.05

###

In this section we review reported half-life values for a set of compounds.
assay: Pharmacokinetic studies in mice; type: in vivo; conditions: male, mouse, serum, sc; CD-1 mice, s.c. (5 mg/kg)

Compound	half-life / h
O=C[C@H](C[C@@H]1CCNC1=O)NC(=O)[C@H](CC1CCCCC1)NC(=O)c1ccc2ccccc2n1	5.63
CC(C)C(NC(=O)c1ccc2ccccc2n1)C(=O)N[C@@H](CC1CCCCC1)C(=O)N[C@H](C=O)C[C@@H]1CCNC1=O (some centres unmarked) [10d]	6.02

Value source: paper PMC8472913
